Every entry's value here was drawn from patent US20140235820A1.

Biological target: LRP6 E3E4 (Homo sapiens, UniProt O75581)
Construct: construct E3E4 amino acids E631-Q1253 of LPR6; made in house; host or cells: Tni insect cells (baculovirus, secreted)
Sequence (O75581 631-1253): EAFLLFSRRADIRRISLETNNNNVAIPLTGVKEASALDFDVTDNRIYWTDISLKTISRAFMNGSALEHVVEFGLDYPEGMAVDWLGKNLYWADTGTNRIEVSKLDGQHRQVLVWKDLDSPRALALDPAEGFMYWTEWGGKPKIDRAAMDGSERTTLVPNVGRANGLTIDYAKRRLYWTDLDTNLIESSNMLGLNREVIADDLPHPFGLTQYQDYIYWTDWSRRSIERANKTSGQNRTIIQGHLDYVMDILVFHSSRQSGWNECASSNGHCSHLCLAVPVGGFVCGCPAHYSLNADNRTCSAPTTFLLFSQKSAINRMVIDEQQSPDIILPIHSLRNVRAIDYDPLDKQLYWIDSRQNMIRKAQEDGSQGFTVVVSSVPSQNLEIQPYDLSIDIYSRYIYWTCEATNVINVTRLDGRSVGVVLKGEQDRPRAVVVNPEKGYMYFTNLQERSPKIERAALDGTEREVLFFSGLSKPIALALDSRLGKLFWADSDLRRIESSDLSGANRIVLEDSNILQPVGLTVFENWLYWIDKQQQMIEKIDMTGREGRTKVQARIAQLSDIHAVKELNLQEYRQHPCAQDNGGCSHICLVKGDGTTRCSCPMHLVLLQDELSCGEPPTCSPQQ
Experiment: Biolayer interferometry binding to LRP6 E3E4
Settings: steady state, read-out: affinity for LRP6 E3E4
metric_name: Kd (nM)
Answers are plain numbers, in nM.

## Input Query (substance): Dkk1: Dickkopf 1 protein, Wnt pathway inhibitor, expressed in insect cells (NSNAIKN) ; field requested: Kd
## Output 51
